system: Hepatitis C virus; assay: Binding affinity to HCV1b C-terminally truncated NS5B Cdelta21 RNA dependent RNA polymerase expressed in Escherichia coli by surface plasmon resonance assay; parameters: species or system Hepatitis C virus subtype 1b
Documented pKd across a set of compounds
Note on pKd: it is the negative log10 of concentration, concentration in mol/L.

>>> value("CN(c1ccncc1)N(c1cc(C#CC(C)(C)C)sc1C(=O)O)C(=O)[C@H]1CC[C@H](C)CC1")
7.52
>>> value("CN(C1CCNCC1)N(c1cc(C#CC(C)(C)C)sc1C(=O)O)C(=O)[C@H]1CC[C@H](C)CC1")
8.40
>>> value("CN([C@H]1CC[C@H](O)CC1)N(c1cc(C#CC(C)(C)C)sc1C(=O)O)C(=O)[C@H]1CC[C@H](C)CC1")
8.10
>>> value("CN(CC1CCOCC1)N(c1cc(C#CC(C)(C)C)sc1C(=O)O)C(=O)[C@H]1CC[C@H](C)CC1")
8.00
>>> value("CN1CCC(N(C)N(c2cc(C#CC(C)(C)C)sc2C(=O)O)C(=O)[C@H]2CC[C@H](C)CC2)CC1")
8.40

API: the following record is the query input.
Query :: Query pKd on Hepatitis C virus for CN(CCO)N(c1cc(C#CC(C)(C)C)sc1C(=O)O)C(=O)[C@H]1CC[C@H](C)CC1
Result :: 8.00

The values you see were collected from ChEMBL document CHEMBL2040772.
